ADAMTS-5 (Homo sapiens) data, read-out Ki
Sequence (Q9UNA0 262-930): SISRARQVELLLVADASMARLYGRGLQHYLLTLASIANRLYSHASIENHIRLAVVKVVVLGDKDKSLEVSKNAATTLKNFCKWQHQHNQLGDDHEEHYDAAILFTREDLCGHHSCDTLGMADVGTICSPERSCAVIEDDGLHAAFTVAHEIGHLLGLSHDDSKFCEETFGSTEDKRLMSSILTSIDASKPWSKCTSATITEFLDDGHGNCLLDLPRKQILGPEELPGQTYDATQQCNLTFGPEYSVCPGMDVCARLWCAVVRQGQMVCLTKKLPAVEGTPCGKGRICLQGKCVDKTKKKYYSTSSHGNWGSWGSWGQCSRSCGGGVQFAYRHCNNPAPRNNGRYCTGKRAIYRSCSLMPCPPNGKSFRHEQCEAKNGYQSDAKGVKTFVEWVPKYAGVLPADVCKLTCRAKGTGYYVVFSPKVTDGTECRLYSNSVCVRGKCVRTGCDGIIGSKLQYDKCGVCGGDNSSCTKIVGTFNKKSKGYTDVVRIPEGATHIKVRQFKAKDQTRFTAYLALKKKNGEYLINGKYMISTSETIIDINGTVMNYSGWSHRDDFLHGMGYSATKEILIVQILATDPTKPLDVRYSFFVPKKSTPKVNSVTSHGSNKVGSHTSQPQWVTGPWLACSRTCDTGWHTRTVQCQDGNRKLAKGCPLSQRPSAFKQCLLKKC
Number only, in µM; omit the unit.

Item under review: NC(=O)[C@H](CCC(=O)O)NC(=O)[C@H](CCC(=O)O)NC(=O)[C@H](Cc1cc(-c2ccc(-c3cccc(Cl)c3)cc2)no1)CP(=O)(O)c1ccc(Br)cc1 [RXP470.1, reference compound] . Reported Ki?
6.1

Try CC[N+]1=C(/C=C/C=C/C=C2/N(CCCCCC(=O)NCCCOCCOCCOCCCNC(=O)[C@H](CCC(=O)O)NC(=O)[C@H](CCC(=O)O)NC(=O)[C@H](Cc3cc(-c4ccc(-c5cccc(Cl)c5)cc4)no3)CP(=O)(O)c3ccc(Br)cc3)c3ccc4c(S(=O)(=O)[O-])cc(S(=O)(=O)O)cc4c3C2(C)C)C(C)(C)c2c1ccc1c(S(=O)(=O)O)cc(S(=O)(=O)O)cc21 [probe 1] next.
1.49

----------
Test system UniProt:P78536, pKi listed for each of the compounds.
Sequence (P78536 215-824): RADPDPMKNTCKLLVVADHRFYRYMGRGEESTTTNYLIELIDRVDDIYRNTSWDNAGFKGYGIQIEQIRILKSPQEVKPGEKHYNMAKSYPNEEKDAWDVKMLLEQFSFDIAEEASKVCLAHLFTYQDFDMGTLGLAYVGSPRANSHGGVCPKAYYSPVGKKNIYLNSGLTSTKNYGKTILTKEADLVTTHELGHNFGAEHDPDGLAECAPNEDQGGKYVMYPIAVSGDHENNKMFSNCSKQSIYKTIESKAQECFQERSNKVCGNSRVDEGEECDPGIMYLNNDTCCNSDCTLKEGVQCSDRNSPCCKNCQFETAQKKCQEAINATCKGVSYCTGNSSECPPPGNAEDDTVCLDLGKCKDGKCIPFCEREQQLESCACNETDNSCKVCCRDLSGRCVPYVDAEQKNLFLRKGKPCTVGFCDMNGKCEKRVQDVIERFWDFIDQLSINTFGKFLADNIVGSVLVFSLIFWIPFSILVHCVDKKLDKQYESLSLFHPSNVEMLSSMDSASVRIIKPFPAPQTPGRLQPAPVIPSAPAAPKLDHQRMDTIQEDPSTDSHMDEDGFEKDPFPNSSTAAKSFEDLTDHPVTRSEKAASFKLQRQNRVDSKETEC
pKi: −log10 of the molar value.

Can you look up the measured pKi of CC1(C)C(=CC=C2CCCC(C=CC3=[N+](CCC[N+](C)(C)C)c4ccc(S(=O)(=O)[O-])cc4C3(C)C)=C2Oc2ccc(CCC(=O)NCCCOCCOCCOCCCNC(=O)C(CCC(=O)[O-])NC(=O)C(CCC(=O)O)NC(=O)C(Cc3cc(-c4cccc(Oc5ccccc5)c4)no3)CP(=O)(O)c3ccc(Br)cc3)cc2)N(CCC[N+](C)(C)C)c2ccc(S(=O)(=O)[O-])cc21 (centres unmarked) for me?
< 4.60

What about `CC[N+]1=C(/C=C/C=C2/N(CCCCCC(=O)NCCCOCCOCCOCCCNC(=O)[C@H](CCC(=O)O)NC(=O)[C@H](CCC(=O)O)NC(=O)[C@H](Cc3cc(-c4ccc(-c5cccc(Cl)c5)cc4)no3)CP(=O)(O)c3ccc(Br)cc3)c3ccc(S(=O)(=O)[O-])cc3C2(C)C)C(C)(C)c2cc(S(=O)(=O)O)ccc21` ?
< 5.00

Also check NC(=O)[C@H](CCC(=O)O)NC(=O)[C@H](CCC(=O)O)NC(=O)[C@H](Cc1cc(-c2ccc(-c3cccc(Cl)c3)cc2)no1)CP(=O)(O)c1ccc(Br)cc1 [RXP470.1, reference compound]
< 5.00

Input `CC[N+]1=C(/C=C/C=C/C=C2/N(CCCCCC(=O)NCCCOCCOCCOCCCNC(=O)[C@H](CCC(=O)O)NC(=O)[C@H](CCC(=O)O)NC(=O)[C@H](Cc3cc(-c4ccc(-c5cccc(Cl)c5)cc4)no3)CP(=O)(O)c3ccc(Br)cc3)c3ccc4c(S(=O)(=O)[O-])cc(S(=O)(=O)O)cc4c3C2(C)C)C(C)(C)c2c1ccc1c(S(=O)(=O)O)cc(S(=O)(=O)O)cc21`
< 5.00

Follow-up item: `CC1(C)C(/C=C/C2=C(Oc3ccc(CCC(=O)NCCCOCCOCCOCCCNC(=O)[C@H](CCC(=O)[O-])NC(=O)[C@H](CCC(=O)O)NC(=O)[C@H](Cc4cc(-c5ccc(-c6cccc(Cl)c6)cc5)no4)CP(=O)(O)c4ccc(Br)cc4)cc3)C(=C/C=C3/N(CCC[N+](C)(C)C)c4ccc(S(=O)(=O)[O-])cc4C3(C)C)/CCC2)=[N+](CCC[N+](C)(C)C)c2ccc(S(=O)(=O)[O-])cc21`
5.34
